Structures can show the parent of a compound that is named as a salt.
Label condition met when melting point is at or above 100 °C; otherwise label condition not met.

>  <molecule>
COc1ccc2ncc(F)c(CCCC3(C(=O)O)CCN(C/C=C/c4cc(F)c(F)c(F)c4)C3)c2c1 (single isomer, unassigned) [Example 50]

>  <cat>
condition met

$$$$
>  <molecule>
COc1ccc2ncc(F)c(CCCC3(C(=O)O)CCN(CCSc4cccs4)C3)c2c1 (single isomer, unassigned) [Example 17]

>  <cat>
condition met

$$$$
>  <molecule>
COc1ccc2ncc(F)c(CCCC3(C(=O)O)CCN(C/C=C/c4c(F)cccc4F)C3)c2c1 (single isomer, unassigned) (as salt: hydrochloride)

>  <cat>
condition not met

$$$$
>  <molecule>
COc1ccc2ncc(F)c(CCCC3(C(=O)O)CN(C/C=C/c4cc(F)ccc4F)C3)c2c1

>  <cat>
condition met

$$$$
>  <molecule>
COc1ccc2ncc(F)c(CCCC3(C(=O)O)CCN(CCSc4c(F)cccc4F)C3)c2c1 (single isomer, unassigned)

>  <cat>
condition met

$$$$

Taken from patent US7232833B2.
